# MEASURED_ON: Plasmodium falciparum enoyl-Acyl carrier protein (ACP) reductase (PfENR) (Plasmodium falciparum)
# Sequence (Q9BH77 22-432): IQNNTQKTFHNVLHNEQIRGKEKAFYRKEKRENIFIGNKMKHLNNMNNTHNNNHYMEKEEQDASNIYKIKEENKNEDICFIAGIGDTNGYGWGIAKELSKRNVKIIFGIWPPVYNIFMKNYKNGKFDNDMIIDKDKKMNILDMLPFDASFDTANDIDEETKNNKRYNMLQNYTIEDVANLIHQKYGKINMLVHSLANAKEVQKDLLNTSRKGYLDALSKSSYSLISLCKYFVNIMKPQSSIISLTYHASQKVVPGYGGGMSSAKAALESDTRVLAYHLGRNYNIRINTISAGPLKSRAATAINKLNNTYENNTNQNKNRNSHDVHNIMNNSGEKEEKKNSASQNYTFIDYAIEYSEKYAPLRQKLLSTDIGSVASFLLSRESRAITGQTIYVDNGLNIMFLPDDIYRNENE
# ASSAY_DETAILS: biochemical
# CONDITION_DETAILS: Ki w.r.t. crotonoyl-CoA [μM], Dixon plot, uncompetitive; NADH 100 μM
ASSAY_ENDPOINT: Ki (µM)
Enter your answer as a number in µM; do not include the unit.

Look over these answered cases.
>  <COMPOUND>
O=C(O[C@@H]1Cc2c(O)cc(O)cc2O[C@@H]1c1ccc(O)c(O)c1)c1cc(O)c(O)c(O)c1 [ECG, (−) epicatechin gallate]

>  <NUMERIC_VALUE>
0.102

$$$$
>  <COMPOUND>
Oc1cc(O)c2c(c1)O[C@H](c1cc(O)c(O)c(O)c1)[C@H](O)C2 [EGC, (−) epigallocatechin]

>  <NUMERIC_VALUE>
2

$$$$
>  <COMPOUND>
O=C(/C=C/c1ccc(O)c(O)c1)c1ccc(O)cc1O [Buteine, butein]

>  <NUMERIC_VALUE>
2.97

$$$$

As a next step, examine the compound that follows.
Enquiry: Recorded Ki of O=c1c(O)c(-c2ccc(O)c(O)c2)oc2cc(O)cc(O)c12 [Quercetin, quercetin] , please.
Return: 0.473
